FYI, the data here is from PubChem BioAssay (NCI).

For each of the molecules below, state its growth.
test system: SK-MEL-2 melanoma; test: NCI-60 one-dose screen, 48 h (100 = growth as untreated, 0 = no growth, -100 = all killed); settings: 10 µM unless noted
Compounds without any hit were thinned out: in the full panel of roughly 83,000, 20% have a hit.
Give bare numbers, in %.

Each molecule below has a recorded value; state its growth.
1. CN1CCN(Cc2ccc(NC(=O)c3cncc(C#Cc4cnccc4C(F)(F)F)c3)cc2C(F)(F)F)CC1
2. CN1CCN(CC#CCNC(=O)[C@]23CCC(C)(C)C[C@H]2C2=CC[C@@H]4[C@@]5(C)Cc6c([nH]c7ccccc67)C(C)(C)[C@@H]5CC[C@@]4(C)[C@]2(C)CC3)CC1
3. COc1ccc(/C=C/C(=O)c2ccc(OC)c(OC)c2)cc1O
4. CCOC(=O)c1c(SC)nn(-c2cc(=O)[nH]c3ccc(Br)cc23)c1N

Solution:
1. 73.4
2. 98.3
3. 99.9
4. 99

Parameter requested: growth. Apply to each item below.
1. O=S(=O)(O)c1cc(O)c2c(N=Nc3ccc(Nc4ccccc4)c4c(S(=O)(=O)O)cccc34)cc(S(=O)(=O)O)cc2c1
2. CCNC(=S)NNC(=O)c1cc2ccc1CCc1ccc(cc1)CC2
3. CC[C@H](CC[C@@H](C)[C@H]1CC[C@H]2[C@@H]3CC=C4C[C@@H](OCCc5nn[nH]n5)CC[C@]4(C)[C@H]3CC[C@]12C)C(C)C
4. O=C(Nc1ccc(Cl)cc1)Nc1ccc(Cl)c(Cl)c1
5. CCN(CC)CCOC(COc1cc(C)cc(C)c1)COc1cc(C)cc(C)c1
6. COc1cccc(-c2nc3occn3c2-c2ccnc(NCCCNS(=O)(=O)c3cccc(F)c3)n2)c1
7. CS(=O)(=O)c1ccc(-c2cc3c(oc2=O)-c2ccccc2OC3O)cc1 (configuration not stated)
8. CC(=O)[C@@H]1CC[C@]2(C(=O)n3ccnc3)CC[C@]3(C)[C@H](CC[C@@H]4[C@@]5(C)Cc6c([nH]c7ccccc67)C(C)(C)[C@@H]5CC[C@]43C)[C@@H]12

Solution:
99.7
102
111
13.3
86.7
90.2
99.2
91.2

====

tested on: MDA-MB-435 melanoma; assay: NCI-60 one-dose screen, 48 h; settings: 10 µM unless noted
The panel holds about 83,000 compounds, 20% with a hit somewhere; the sample as a whole holds those more often. Active and inactive are the calls of the source. The calls were made as follows: active = growth percent below 10; inactive = the rest.
Pick one: YES for active, NO for inactive

compound	label class
c1ccc(-c2nn(-c3ccccc3)[n+](-c3ccccc3-c3ccccc3)n2)cc1	YES

# ---- query compound ----
Exercise: Field: outcome | Entry: O=C(O)c1cn(C2CC2)c2cc(N3CCN(C(=O)C[n+]4cccc5ccccc54)CC3)c(F)cc2c1=O
Solution: NO

====

system: SF-539 CNS; assay: NCI-60 one-dose screen, 48 h; conditions: 10 µM unless noted
Compounds without any hit were thinned out: in the full panel of roughly 83,000, 20% have a hit. The source made the active and inactive calls. How the source made its calls: active means growth percent below 10; inactive means the rest.
Could you please pick one outcome from this set? active, inactive

compound	target entity	label class
CC(O)(CO)c1ccccc1 (stereo not given)	SF-539 CNS	inactive
CC(=O)N1c2ccccc2NC2=C(C(=O)N(C)C2(C)C)C1C (stereo not given)	SF-539 CNS	inactive
Cc1cccc(C)c1-c1cc(Cc2ccc(Cl)cc2)c(=O)[nH]n1	SF-539 CNS	inactive
O=C(Nc1ccc2cc3ccc(NC(=O)NC4CCCCC4)cc3nc2c1)NC1CCCCC1	SF-539 CNS	inactive
O=C1Nc2ccccc2/C1=N/c1nc(-c2ccc(Cl)cc2)cs1	SF-539 CNS	inactive

Exercise: Answer briefly: the call reported for C=C1C(=O)O[C@H]2[C@H]1CC/C(COC(=O)CCCCCC(=O)OC/C1=C/CC[C@@]3(C)O[C@H]3[C@H]3OC(=O)C(=C)[C@@H]3CC1)=C\CC[C@@]1(C)O[C@@H]21 in this assay.
Solution: active

Exercise: Note, next up: O=C(NCCN1CCOCC1)OCc1nc2nc(Cl)nc(N3CCOCC3)c2[nH]1
Solution: active

Exercise: Same lookup for Nc1cc(N)c2cccnc2c1O , please.
Solution: inactive

Exercise: Then what about the compound COc1ccc(-c2ncc(-c3ccccc3)[nH]2)cc1OC ?
Solution: inactive

Exercise: Field entry: O=C1Nc2c(ccc(Cl)c2Cl)/C1=C/c1ccccn1
Solution: inactive

Exercise: Also, O=C(Nc1sc2c(c1C(=O)O)CCCC2)c1cccc(C(F)(F)F)c1 please.
Solution: inactive

Exercise: Request: Clc1cc(Cl)cc(N2N=C(c3cccc(Nc4ccncc4)c3)CC2c2ccccc2)c1 (stereo not given)
Solution: inactive

Exercise: C#CCn1cc(C=C2C(=O)NC(=S)NC2=O)c2cc(Cl)ccc21 ?
Solution: active

Exercise: Again, but for CC1(C)CN(c2cnc(C(=O)Nc3cc(F)cc4cccnc34)cn2)CCN1
Solution: inactive

Exercise: Can you handle Cc1n[nH]c(C)c1-c1c(C)n[nH]c1C next?
Solution: active

Exercise: Again, but for O=c1[nH]nc(-c2ccc(Cl)cc2)cc1Cc1cccc([N+](=O)[O-])c1
Solution: inactive

Exercise: Follow-up item: CC(C)CCSc1nc(NNC(N)=O)c(C#N)c(-c2ccccc2)n1
Solution: inactive

Exercise: Then COc1cccc2c1C(=O)c1c(O)c3c(c(O)c1C2=O)C[C@@](O)(C(=O)CO)C[C@@H]3O[C@H]1C[C@H](N)[C@@H](O)[C@H](C)O1 ?
Solution: active

Exercise: Then this compound: CC(N)C(=O)NNc1n[nH]c(=S)n1N (stereo not given)
Solution: inactive

Exercise: Further, for CCCCCN1C=C/C(=C\C(=O)N(C)c2cccc3ccccc23)c2ccccc21 ?
Solution: inactive

Exercise: COc1cc2c(cc1[N+](=O)[O-])-c1ccc([N+](=O)[O-])cc1/C2=N\O ?
Solution: inactive

====

system: HCT-116 colon; experiment: NCI-60 one-dose screen, 48 h (100 = growth as untreated, 0 = no growth, -100 = all killed); conditions: 10 µM unless noted
Compounds without any hit were thinned out: in the full panel of roughly 83,000, 20% have a hit.
# if value of growth reaches 90%, tag Condition met; if it stays below, tag Condition not met

Answered examples (8):
compound	target entity	label class
O=C(N=Nc1c(O)[nH]c2ccc(F)cc12)c1cc2ccccc2[nH]1	HCT-116 colon	Condition met
CC(c1ccccc1)n1ccnc1CO (stereo unspecified)	HCT-116 colon	Condition met
NC(=O)CN1CCN(c2ccccc2Cl)CC1	HCT-116 colon	Condition met
C#CC(=O)Nc1cccc(Nc2nc3c(c(NCc4ccccc4)n2)CCCC3)c1	HCT-116 colon	Condition not met
Cn1/c(=N/NC(N)=S)ccc2ccccc21	HCT-116 colon	Condition not met
COc1ccc(/C=C2\COc3ccc(-c4ccccc4)cc3C2=O)cc1O	HCT-116 colon	Condition not met
FC(F)(F)c1cccc(Nc2ccccc2)c1	HCT-116 colon	Condition met
COc1cc(/C=C/C(=O)c2c(C)oc3nc[nH]c(=O)c23)ccc1O	HCT-116 colon	Condition met

Exercise: In plain terms: is recorded growth at least 90% for c1ccc(C2CC(c3cccc(Nc4ccncc4)c3)=NN2c2ccccc2)cc1 (stereo unspecified) ?
Solution: Condition not met

Exercise: Another compound to look at: O=C(Nc1nc(-c2ccc(Br)cc2)cs1)c1cc(-c2ccc(Br)cc2)nc2ccc(Cl)cc12
Solution: Condition not met

Exercise: // same read-out, input: O=c1[nH]nc(-c2ccc(Br)cc2)cc1Cc1ccc(O)cc1
Solution: Condition met

====

tested on: OVCAR-5 ovarian; experiment: NCI-60 one-dose screen, 48 h (100 = growth as untreated, 0 = no growth, -100 = all killed); conditions: 10 µM unless noted
Compounds without any hit were thinned out: in the full panel of roughly 83,000, 20% have a hit.
Doc: threshold 70% (exclusive). Items with growth beneath it return True; others return False.

molecule	target entity	label class
O=C(Nc1ccc(Nc2ncccn2)cc1)NC1C=c2ccccc2=CC1 (configuration not stated)	OVCAR-5 ovarian	False

Shift focus to the following entry.
Exercise: Below 70% on growth? Entry Fc1ccc(C2CC(c3cccc(Nc4ccncc4)c3)=NN2c2ccccc2)cc1 (configuration not stated)
Solution: False

====

test system: UACC-257 melanoma; test: NCI-60 one-dose screen, 48 h; details: 10 µM unless noted
Compounds without any hit were thinned out: in the full panel of roughly 83,000, 20% have a hit. Active and inactive are the calls of the source. The calls were made as follows: active = growth percent below 10; inactive = the rest.
Returns: one label drawn from active, inactive

Use the examples below as a reference point.
compound	label class
CN(Cc1ccccc1)c1nc(Cl)c(C2CC(c3ccc(Cl)cc3)=Cc3[nH][nH]c(=O)c32)s1 (centres undefined)	inactive
O=C(N/N=C/c1ccncc1)c1ccccc1Nc1cccc(C(F)(F)F)c1	inactive
C=C1C(=O)O[C@H]2[C@H]1CC/C(COC(=O)CCCc1c[nH]c3ccccc13)=C\CC[C@@]1(C)O[C@@H]21	inactive
C(=C\c1n(Cc2ccc3ccccc3c2)c(-c2ccccc2)c(-c2ccccc2)[n+]1Cc1ccc2ccccc2c1)/c1ccccc1	active
COc1cc2nc(-c3ccc(-c4nn[nH]n4)cc3)[nH]c(=O)c2cc1OC	inactive
CS(=O)(=O)OCCN(CCOS(C)(=O)=O)c1ccc(/C=N/Nc2ccc([N+](=O)[O-])cc2[N+](=O)[O-])cc1	inactive
O=C1c2ccccc2-c2c1c1c(NCCCO)nc3ccccc3c1n2Cc1ccccc1	inactive
CN(C)c1ccc(-c2c(C#N)c(N)n3nc(N)c(C#N)c3c2C#N)cc1	inactive
O=C1c2ccccc2C(=O)c2c(NCCN=Cc3ccccc3O)cccc21	active
COc1cc2c(cc1[N+](=O)[O-])-c1ccc([N+](=O)[O-])cc1/C2=N\O	inactive

Then there is this compound:
Exercise: What did the test return for CCc1nc(C)cn1C(=O)OCc1nc2nc(Cl)nc(N3CCOCC3)c2[nH]1 ?
Solution: active
